src = ChEMBL document CHEMBL3407461

Molecular target: Adenosine receptor A1 (Homo sapiens)
Assay: Displacement of [3H]R-PIA from human recombinant A1 adenosine receptor expressed in CHO cells at 10 uM after 60 mins by liquid scintillation counting
Format: cell-based
measured.endpoint: inhibition (%)

Item: `CNC(=O)[C@@]12C[C@@H]1[C@@H](n1cnc3c(NC)nc(C#Cc4ccccc4Cl)nc31)[C@H](O)[C@@H]2O` Test system: Adenosine receptor A1 (Homo sapiens) Read-out: inhibition Value: ?
22

Item: `CNC(=O)[C@@]12C[C@@H]1[C@@H](n1cnc3c(NC)nc(C#Cc4cccnc4)nc31)[C@H](O)[C@@H]2O` Test system: Adenosine receptor A1 (Homo sapiens) Read-out: inhibition Value: ?
16

Item: `CNC(=O)[C@@]12C[C@@H]1[C@@H](n1cnc3c(NC)nc(C#Cc4ccc(OC)cc4)nc31)[C@H](O)[C@@H]2O` Test system: Adenosine receptor A1 (Homo sapiens) Read-out: inhibition Value: ?
10

Item: `CNC(=O)[C@@]12C[C@@H]1[C@@H](n1cnc3c(NC)nc(C#Cc4ccc(-c5ccccc5)cc4)nc31)[C@H](O)[C@@H]2O` Test system: Adenosine receptor A1 (Homo sapiens) Read-out: inhibition Value: ?
18

1 = CNC(=O)[C@@]12C[C@@H]1[C@@H](n1cnc3c(NC)nc(C#Cc4cccc(F)c4)nc31)[C@H](O)[C@@H]2O
2 = CNC(=O)[C@@]12C[C@@H]1[C@@H](n1cnc3c(NC)nc(C#Cc4cccs4)nc31)[C@H](O)[C@@H]2O
// pick min by inhibition: 1 , 2 Your answer should be the label attached to the chosen record.
1
(1: 14%, 2: 25%)
